# System: A498 renal
# test.method.notes: NCI-60 one-dose screen, 48 h (100 = growth as untreated, 0 = no growth, -100 = all killed)
# experimental.parameters: 10 µM unless noted
Compounds without any hit were thinned out: in the full panel of roughly 83,000, 20% have a hit.
measured.property: growth (%)
Use % as the unit, but write only the number.

• COC(=O)CCCCCCN=Cc1c(O)c(O)c(C(C)C)c2cc(C)c(-c3c(C)cc4c(C(C)C)c(O)c(O)c(C=NCCCCCCC(=O)OC)c4c3O)c(O)c12 = 46.1
• O=[N+]([O-])c1cc(S(=O)(=O)OCC2CO2)ccc1Cl (stereo unspecified) = 121

The reported value for NC(=O)NNC(=O)c1ccccc1 in terms of growth is 124

The reported value for COc1cc(C2CC(c3c(C)[n+]([O-])c4ccccc4[n+]3[O-])=NN2)cc(OC)c1OC (stereo unspecified) in terms of growth is 97.5

###

# System: SF-295 CNS
# test.method.notes: NCI-60 one-dose screen, 48 h (100 = growth as untreated, 0 = no growth, -100 = all killed)
# experimental.parameters: 10 µM unless noted
About 83,000 compounds went through this panel and 20% of them were active in at least one assay; those are over-represented in the sample as a whole.
Listed here are compounds together with their documented growth.
Use % as the unit, but write only the number.

The reported value for COc1ccc(S(=O)(=O)N2CCN(c3cc4c(cc3F)c(=O)c(C(=O)O)cn4C3CC3)CC2)c(OC)c1 in terms of growth is 91.4

###

# Test system: U251 CNS
# test.method.notes: NCI-60 one-dose screen, 48 h (100 = growth as untreated, 0 = no growth, -100 = all killed)
# experimental.parameters: 10 µM unless noted
# Procedure: Growth inhibition of the U251 human tumor cell line is measured as a screen for anti-cancer activity. Cells are grown in 96 well plates and exposed to the test compound for 48 hours. Compounds are tested at a single concentration, which is 10^-5 M for most compounds. The reported endpoint is percent growth (GI% or GIPRCNT), where numbers from 0 - 100% represent growth inhibition, and numbers from -100% - 0 represent cell death. For example, a value of 40 represents 60% growth inhibition. […]
About 83,000 compounds went through this panel and 20% of them were active in at least one assay; those are over-represented in the sample as a whole.
Just a reminder that ties go to criterion not met: only growth strictly below 40% counts as criterion met.

- Cc1nc2scc(-c3ccccc3)n2c(=O)c1CCO: criterion not met
- COc1ccc(NC(=O)CSc2nc3ccc(Cl)cc3c(=O)n2-c2ccccc2C(F)(F)F)c(OC)c1OC: criterion not met
- Cc1ccc(S(=O)(=O)OCC(=O)Nc2ccc(C(=O)O)c(O)c2)cc1: criterion not met
- COc1ccc(OC)c(NC(=O)c2cc(S(=O)(=O)N3CCc4ccccc43)ccc2OC)c1: criterion not met

Request: Answer whether the compound CNC(=O)c1cc(Oc2ccc3c(c2)sc2nc(-c4ccc(Cl)cc4)cn23)ccn1 has growth strictly less than 40%
Result: criterion not met

###

# System: NCI-H522 lung
# test.method.notes: NCI-60 one-dose screen, 48 h (100 = growth as untreated, 0 = no growth, -100 = all killed)
# experimental.parameters: 10 µM unless noted
This is part of a sample that, as a whole, favours compounds with a hit. Of some 83,000 tested, about 20% had one in any assay.
Listed here are compounds together with their documented growth.
Use % as the unit, but write only the number.

Some compounds with recorded growth:
- CCC(=O)Oc1ccc2c(c1)CC[C@@H]1[C@@H]2CC[C@]2(C)C[C@H](OC(=O)CC)C[C@@H]12: 32.1
- C[N+](C)(C)c1ccc(CC2c3ccccc3-c3ccccc32)cc1: 59.9
- COc1ccc(-c2cn[nH]c2-c2cc(OC)c3c(c2)OCCO3)cc1: -22.8
- CCCCNC(=O)NS(=O)(=O)c1ccc(N2N=C(c3ccc(C)cc3C)CC2c2ccc(OC)cc2)cc1 (stereo unspecified): 54.4
- O=c1c2cccc3c(Nc4ccc(F)cc4)ccc(c32)c2nc3ccccc3n12: 82
- O=C(Nc1ccc(I)cc1)c1cccc([N+](=O)[O-])c1O: 1.75
- NC(=O)NNC(=O)c1ccccc1: 107
- CCNC(=O)CCCCC(=O)c1c(C)[nH]c(/C=C2\N=C(c3ccc[nH]3)C=C2OC)c1C: -91.7

The reported value for CC(C)(C)c1ccc(S(=O)(=O)Oc2ccc3c4c(c(=O)oc3c2)CCCCC4)cc1 in terms of growth is -14.1

The reported value for COc1ccc2c(c1)C(C)Cc1c(N(C)C)ncnc1N2C (stereo unspecified) in terms of growth is -0.111

The reported value for O=C1Nc2cc(Cl)ccc2Oc2cc(Oc3ccccc3)ccc21 in terms of growth is 45.1

The reported value for CCN1C(=O)N(CC)C2Nn3c(s/c(=C4\C(=O)N(C5CCCC5)c5ccccc54)c3=O)=NC21 (stereo unspecified) in terms of growth is 28

The reported value for CN(C)c1ncc(-c2ccc(C(F)(F)F)cc2)c(NC2CCCCCC2)n1 in terms of growth is 43.6

The reported value for CCNCc1ccncc1 in terms of growth is 91

The reported value for CC1=NN2C(=NC3=C(CCC/C3=C\c3ccc(Cl)cc3)C2c2ccc(Cl)cc2)S1 (stereo unspecified) in terms of growth is 83.3

The reported value for CCN(CC)c1cc(/C=C/c2ccc(OC)c(OC)c2)nc2cc(F)c(F)cc12 in terms of growth is 33.9

The reported value for COc1cc2nc(SCc3cc(OC)c(OC)c(OC)c3)n(Cc3ccccc3)c(=O)c2cc1OC in terms of growth is -33

The reported value for CCN(Cc1ccc(CN(CC)C(=O)C(Br)Br)cc1)C(=O)C(Br)Br in terms of growth is 32.5

The reported value for O=C(Nc1ccc(OCc2nnc(-c3ccc(Cl)cc3)o2)c(F)c1)Nc1ccc(Cl)c(Cl)c1 in terms of growth is 40.4

Origin of the recorded values: PubChem BioAssay (NCI)
